Source: patent CN118525034A

# measured.on: T1, 犬IL-31RA ECD-10His (犬 (canine))
# T1 chain: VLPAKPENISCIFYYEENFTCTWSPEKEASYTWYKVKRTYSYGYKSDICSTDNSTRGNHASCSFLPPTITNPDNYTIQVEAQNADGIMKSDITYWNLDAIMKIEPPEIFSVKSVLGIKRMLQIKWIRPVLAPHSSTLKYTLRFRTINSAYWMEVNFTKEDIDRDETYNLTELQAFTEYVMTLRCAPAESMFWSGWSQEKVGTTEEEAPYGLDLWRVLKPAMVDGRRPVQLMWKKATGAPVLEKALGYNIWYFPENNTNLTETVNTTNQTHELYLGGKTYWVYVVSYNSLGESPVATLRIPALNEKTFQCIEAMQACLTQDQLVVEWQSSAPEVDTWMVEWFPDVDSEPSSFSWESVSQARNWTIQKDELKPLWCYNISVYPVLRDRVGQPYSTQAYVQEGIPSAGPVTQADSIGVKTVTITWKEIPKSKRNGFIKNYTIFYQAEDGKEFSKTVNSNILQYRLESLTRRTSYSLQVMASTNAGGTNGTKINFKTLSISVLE
# method.description: Octet BLI, biotinylated canine IL-31RA on SA biosensor, mAb 100-3.13 nM, 1:1 model
Exercise: for every item that follows, state its recorded log10 koff.
Lab note - koff converted to log10 from values in s⁻¹.

// below: answered binders
Task: May I ask what log10 koff has been recorded for 224G3 (antibody, V domains shown) VH: EVQLVESGGDLVKPGGSLKLSCAASGFTFSSYGMSWVRQTPDKRLEWVATISNGGSYTYYPDSVKGRFTISRDNAKNTLYMQMSSLKSEDTAMYYCARNEPPDYWGQGTSVTVSS VL: DIQMTQSPASLSVSVGETVTITCRASENIYSSLAWYQQKQGKSPQLLVYAATNLADGVPSRFSGSGSGTQYSLKINSLQSEDSGNYYCQHFRDTPPTFGGGTKLEIK ?
Result: -5.97

Task: May I ask what log10 koff has been recorded for 85C10 (antibody, V domains shown) VH: EFQLQQSGPELVKPGASVKISCKASGYSFTDYSINWVKQSNGKSLEWIGVINPNYGTSSHNQKFKGKATMTVDQSSSTAYMQLNSLTSEDSAVYYCARALDDYYFYWYFDVWGIGTTVTVSS VL: DVVMTQTPLSLPVSLGDQASISCRSSQSLIHTNGNTYLHWYLQKPGQSPKLLIYKVSNRFSGVPDRFSGSGSGTDFTLKISRLEAEDLGVYFCSQSTHVPLTFGAGTKLELR ?
Result: -3.44

Task: May I ask what log10 koff has been recorded for 51F8 (antibody, V domains shown) VH: EVQLQQSVAELVRPGASVKLSCTASGFNIKNTFIHWVKQRPEQGLEWIGRIDPANGNTKYAPKFQGRATLTADTSSNTAYLQLSSLTSEDTAIYYCARYYYVSSYFDVWGTGTTVTVSS VL: SIVMTQTPKFLLVSAGDRVTITCKASQSVTNDVTWYQQKPGQSPKLLIYYASNRYTGVPDRFTGSGYGTDFTFTISTVQAEDLAVYFCQQDYSSPFTFGSGTKLEIK ?
Result: -3.85

Task: May I ask what log10 koff has been recorded for 65G9 (antibody, V domains shown) VH: EFQLQQSGPELVKPGASVKISCKASGYSFTDYGMNWLKQINGKSLEWIAIINPNYGTASSNPKFKDKATLTVDHSSSTAYMQLSSLTSEDSAVYYCARAFDGYYFYWYFDVWGTGTTVTVSS VL: SIVMTQTPKFLLVSAGDRVTITCKASQSVTNDVTWYQQKPGQSPKLLIFSASNRYTGVPDRFTGSGYGTDFTFTISTVQAEDLAVYFCQQDYSSPWTFGGGTKLEIK ?
Result: -3.45

Task: May I ask what log10 koff has been recorded for 209G5 (antibody, V domains shown) VH: EVQLQQSVAELVRPGASVKLSCTASGFNIKNTYMHWVKERPEQGLEWIGRIDPANGNSKYAPKFQGKATITTDTSSNTAYLQLSSLTSEDTAIYYCARYYYVSSHFDVWGTGTTVTVSS VL: DIKMTQSPSSMYASLGERVTITCKASQDINSYLNWFQQKPGKSPKTLIYRADRLVDGVPSRFSGSGSGQDYSLTISSLEYEDMGIYYCLQYDEFPLTFGDGTKLELN ?
Result: -4.31

Note: attention shifts to another entry.
Task: May I ask what log10 koff has been recorded for 218D9 (antibody, V domains shown) VH: QVTLKESGPGILQPSQTLSLTCSFSGFSLSTFGRGVGWIRQPSGKGLDWLTHIWWDDDKYYNPALKSRLTISKDTSKNQVFLKIANVDTADTATYYCARIAGGLRRAPYAMDSWGQGTSVTVSS VL: DVVMTQTPLSLPVSLGDQASISCRSSQSLVHTNGNTYLHWYLQKPGQSPKLLIYKVSNRFSGVPDRFSGSGSGTDFTLKISRVEAEDLGVYFCSQTTHVPLTFGAGTKLELK ?
Result: -4.33
